# measuredTarget: Luciferin 4-monooxygenase (Photinus pyralis)
# protocolDetails: qHTS assay to identify small molecule inhibitors of firefly luciferase (AID 1224835); also: nearly all actives have a fitted effect of over 25% in size
# conditionSet: purified P. pyralis luciferase, luminescence inhibition; series mostly up to 115 µM
Results filed as inconclusive are left out. The source made the active and inactive calls. Calls follow the shape of the dose curve; as a rule, active = well fitted inhibition curve with a large enough effect in the repeat runs; inconclusive = weak or mixed curves; inactive = flat fitted curve, though single readings scatter.
Respond using exactly one of the listed classes: Y = active, N = inactive

Consider the following illustrative entries.
>  <compound>
C#CCOC(=O)/C=C(C)/C=C/CC(C)CCCC(C)C (stereo not drawn)

>  <measuredTarget>
Luciferin 4-monooxygenase (Photinus pyralis)

>  <class>
N

$$$$
>  <compound>
CCC1(CC)C(=O)C=CNC1=O

>  <measuredTarget>
Luciferin 4-monooxygenase (Photinus pyralis)

>  <class>
N

$$$$
>  <compound>
ClC1=C(Cl)C2(Cl)C(CBr)CC1(Cl)C2(Cl)Cl (stereo not drawn)

>  <measuredTarget>
Luciferin 4-monooxygenase (Photinus pyralis)

>  <class>
N

$$$$

Query: Record request — test call for Cc1cccc2sc3nncn3c12
Response: N

Query: For COc1ccc(CN2CCNCC2)c(OC)c1OC , what call appears in the results of this test?
Response: N

Query: Could you please tell me the result logged for CCCCCCCC(=O)Cl in this assay?
Response: N

Query: Lab log entry: CC(C)(N)Cc1ccccc1Cl — outcome as called in the assay?
Response: N

Query: Fill in: this test's call for CCCC(C)(COC(N)=O)COC(N)=O is ___
Response: N

Query: What outcome does the record of this test show for c1cncc([C@@H]2CCCCN2)c1 ?
Response: N

Query: What is the recorded call for this compound in the test? C=CC=O
Response: N

Query: Give the logged outcome of this assay for the following compound: CON(C)C(=O)Nc1ccc(Br)c(Cl)c1
Response: Y

* * *

# protocolDetails: A CellTox Green Cytotoxicity Assay to monitor cytotoxicity in HepG2 cells - 40 hour (AID 1224879); also: nearly all actives have a fitted effect of over 40% in size
# conditionSet: CellTox Green fluorescence; series mostly up to 76.8 µM
Records with an inconclusive call do not appear. Active and inactive are the calls of the source. The call rests on the fitted dose curve; in most records, active means well fitted activation curve with a large enough effect in the repeat runs; inconclusive means weak or mixed curves; inactive means flat fitted curve, though single readings scatter.
Hello, when you answer, please use one of the following outcomes: class 1 (active), class 0 (inactive)

Solved entries (count: 8):
>  <compound>
CCC1(c2cccc(O)c2)CCCCN(C)C1 (stereo not drawn)

>  <class>
class 0

$$$$
>  <compound>
C=CCN1CC[C@]23CCCC[C@H]2[C@H]1Cc1ccc(O)cc13

>  <class>
class 0

$$$$
>  <compound>
CC(C)(C)C(=O)Cl

>  <class>
class 0

$$$$
>  <compound>
CCN[C@@H](C)Cc1ccccc1

>  <class>
class 1

$$$$
>  <compound>
CCCOC(=O)Cc1ccc(OCC(=O)N(CC)CC)c(OC)c1

>  <class>
class 0

$$$$
>  <compound>
BrCc1ccc(Br)cc1

>  <class>
class 0

$$$$
>  <compound>
COc1cccc(C=O)c1

>  <class>
class 0

$$$$
>  <compound>
C=CC=O

>  <class>
class 0

$$$$

Query: What call does the record list for CCOC(=O)CCl ?
Response: class 0

Query: GET /call?item= COC[C@@H](NC(C)=O)C(=O)NCc1ccccc1 returns the recorded outcome of this test.
Response: class 0

* * *

# measuredTarget: Androgen receptor (Homo sapiens) (UniProt P10275)
# Sequence (P10275 whole entry, looked up): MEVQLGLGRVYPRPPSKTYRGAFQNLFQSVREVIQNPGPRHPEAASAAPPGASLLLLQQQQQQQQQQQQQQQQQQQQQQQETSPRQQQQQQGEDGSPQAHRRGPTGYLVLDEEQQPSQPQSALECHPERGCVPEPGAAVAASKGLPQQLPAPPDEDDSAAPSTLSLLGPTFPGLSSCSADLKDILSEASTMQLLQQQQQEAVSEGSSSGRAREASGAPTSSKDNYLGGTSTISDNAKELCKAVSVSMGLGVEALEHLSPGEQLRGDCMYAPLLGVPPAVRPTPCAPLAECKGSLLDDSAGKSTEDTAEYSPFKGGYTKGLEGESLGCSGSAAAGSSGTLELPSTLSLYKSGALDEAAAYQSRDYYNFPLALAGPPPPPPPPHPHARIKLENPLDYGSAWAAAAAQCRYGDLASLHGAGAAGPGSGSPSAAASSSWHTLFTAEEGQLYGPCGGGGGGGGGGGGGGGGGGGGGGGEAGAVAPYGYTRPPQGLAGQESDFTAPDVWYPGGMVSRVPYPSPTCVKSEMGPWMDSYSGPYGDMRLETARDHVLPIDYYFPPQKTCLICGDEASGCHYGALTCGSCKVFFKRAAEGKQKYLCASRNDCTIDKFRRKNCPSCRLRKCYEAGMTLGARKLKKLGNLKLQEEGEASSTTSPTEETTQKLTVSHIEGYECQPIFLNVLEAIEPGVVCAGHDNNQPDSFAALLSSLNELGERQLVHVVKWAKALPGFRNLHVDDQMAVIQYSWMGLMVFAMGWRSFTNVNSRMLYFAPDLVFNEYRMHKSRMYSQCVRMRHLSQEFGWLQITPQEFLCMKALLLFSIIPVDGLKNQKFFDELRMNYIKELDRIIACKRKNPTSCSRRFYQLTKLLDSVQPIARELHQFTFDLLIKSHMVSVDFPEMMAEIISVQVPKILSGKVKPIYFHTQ
# protocolDetails: qHTS assay to identify small molecule antagonists of the androgen receptor (AR) signaling pathway (AID 743035)
# conditionSet: HEK293 AR-UAS-bla, R1881-stimulated, beta-lactamase FRET, 16 h; series mostly up to 58.5 µM
Records with an inconclusive call do not appear. Active and inactive are the calls of the source. Calls follow the shape of the dose curve; as a rule, active = well fitted inhibition curve with a large enough effect in the signal ratio in the repeat runs (not every such curve was filed as active); inconclusive = weak or mixed curves, or effect the other way; inactive = no such curve, though single readings can be large or run the other way; the % refers to the signal ratio.
Respond using exactly one of the listed classes: active, inactive

Take a look at these entries with their results.
>  <molecule>
CCOC1Oc2ccc(OS(C)(=O)=O)cc2C1(C)C (stereo unspecified)

>  <class>
active

$$$$
>  <molecule>
C[C@H]1CCCC(=O)CCC/C=C/c2cc(O)cc(O)c2C(=O)O1

>  <class>
active

$$$$
>  <molecule>
CCSC(=O)Cl

>  <class>
inactive

$$$$

Query: Hello, I am checking results. What call was entered for CNC(=O)NC(O)C(Cl)(Cl)Cl (stereo unspecified) ?
Response: inactive

Query: // outcome(item) with item = CCN(CC)C1CCCCC1
Response: inactive

Query: Look up the recorded call for CN(C)C(=O)Oc1cc(OC(=O)N(C)C)cc(C(O)CNC(C)(C)C)c1 (stereo unspecified) in this test.
Response: inactive
